Recorded log10 GI25 by entry
System: PBMC
Experiment: Cytotoxicity against PBMC after 1 week by trypan blue exclusion test
Assay type: cell-based
Condition Label: human, 168 h
Assay Readout: log10 GI25 (log10 of the value in µM)

- Compound: "CCOP(=O)(CC1CC(n2cnc3c(N)ncnc32)ON1C)OCC (racemic)"
  Measured Target: "PBMC"
  Quantitative Result: 2.08
- Compound: "Cc1cn([C@H]2C[C@H](N=[N+]=[N-])[C@@H](CO)O2)c(=O)[nH]c1=O [ZIDOVUDINE]"
  Measured Target: "PBMC"
  Quantitative Result: 1.18
- Compound: "CCOP(=O)(CC1CC(n2cc(F)c(=O)[nH]c2=O)ON1C)OCC (stereo not given)"
  Measured Target: "PBMC"
  Quantitative Result: 2.08
- Compound: "CCOP(=O)(CC1CC(n2cc(C)c(=O)[nH]c2=O)ON1C)OCC (stereo not given)"
  Measured Target: "PBMC"
  Quantitative Result: 2.91
- Compound: "CCOP(=O)(CC1CC(n2cc(Br)c(=O)[nH]c2=O)ON1C)OCC (racemic)"
  Measured Target: "PBMC"
  Quantitative Result: 2.33

###

System: PBMC
Experiment: Cytotoxicity against PBMC after 1 week by trypan blue exclusion test
Assay type: cell-based
Condition Label: human, 168 h
Assay Readout: CC20

- Compound: "CCOP(=O)(CC1CC(n2cc(C)c(=O)[nH]c2=O)ON1C)OCC (stereo not given)"
  Result: "> 2048 µM"
- Compound: "Cc1cn([C@H]2C[C@H](N=[N+]=[N-])[C@@H](CO)O2)c(=O)[nH]c1=O"
  Result: "1153 µM"
- Compound: "CCOP(=O)(CC1CC(n2cnc3c(N)ncnc32)ON1C)OCC (racemic)"
  Result: "> 2048 µM"
- Compound: "CCOP(=O)(CC1CC(n2cc(Br)c(=O)[nH]c2=O)ON1C)OCC (racemic)"
  Result: "> 2048 µM"
- Compound: "CCOP(=O)(CC1CC(n2cc(F)c(=O)[nH]c2=O)ON1C)OCC (stereo not given)"
  Result: "> 2048 µM"

Sourced from ChEMBL document CHEMBL1145446
